Listed here: items and their measured log10 IC50.
test system: Leishmania donovani; experiment: Antileishmanial activity against Leishmania donovani axenic amastigotes after 3 days by tetrazolium dye based spectrophotometric analysis at pH 5.5; type: functional, organism-based; details: 72 h
Endpoint: log10 IC50 (log10 of the value in µM)

Compound: CC(C)COc1cc(NC(=N)c2ccccn2)ccc1-c1ccc(-c2ccc(NC(=N)c3ccccn3)cc2OCC(C)C)o1
Test target: Leishmania donovani
Endpoint: log10 IC50
Meas value: 0.04
--
Compound: CC(C)Oc1cc(NC(=N)c2cn(C)cn2)ccc1-c1ccc(-c2ccc(NC(=N)c3cn(C)cn3)cc2OC(C)C)o1
Test target: Leishmania donovani
Endpoint: log10 IC50
Meas value: 1.49
--
Compound: CNc1nc(C(=N)Nc2ccc(-c3ccc(-c4ccc(NC(=N)c5csc(NC)n5)cc4OC(C)C)o3)c(OC(C)C)c2)cs1
Test target: Leishmania donovani
Endpoint: log10 IC50
Meas value: 0.11
--
Compound: CC(C)Oc1cc(NC(=N)c2ncc[nH]2)ccc1-c1ccc(-c2ccc(NC(=N)c3ncc[nH]3)cc2OC(C)C)o1
Test target: Leishmania donovani
Endpoint: log10 IC50
Meas value: 0.00
--
Compound: N=C(Nc1ccc(-c2ccc(-c3ccc(NC(=N)c4ccccn4)cc3Cl)o2)c(Cl)c1)c1ccccn1
Test target: Leishmania donovani
Endpoint: log10 IC50
Meas value: 0.30
--
Compound: CC(C)Oc1cc(NC(=N)c2ccc(F)cn2)ccc1-c1ccc(-c2ccc(NC(=N)c3ccc(F)cn3)cc2OC(C)C)o1
Test target: Leishmania donovani
Endpoint: log10 IC50
Meas value: 0.40
--
Compound: Cc1cc(NC(=N)c2ccccn2)ccc1-c1ccc(-c2ccc(NC(=N)c3ccccn3)cc2C)o1
Test target: Leishmania donovani
Endpoint: log10 IC50
Meas value: -0.17
--
Compound: N/C(=N\c1ccc(-c2ccc(-c3ccc(/N=C(\N)c4ccccn4)cc3OC3CCNCC3)o2)c(OC2CCNCC2)c1)c1ccccn1
Test target: Leishmania donovani
Endpoint: log10 IC50
Meas value: 1.77
--
Compound: N=C(Nc1ccc(-c2ccc(-c3ccc(NC(=N)c4ccccn4)cc3OCC(F)(F)F)o2)c(OCC(F)(F)F)c1)c1ccccn1
Test target: Leishmania donovani
Endpoint: log10 IC50
Meas value: 0.04
--
Compound: CC(=N)Nc1ccc(-c2ccc(-c3ccc(NC(C)=N)cc3OC3CCCC3)o2)c(OC2CCCC2)c1
Test target: Leishmania donovani
Endpoint: log10 IC50
Meas value: 1.61
--
Compound: Cc1nc(C(=N)Nc2ccc(-c3ccc(-c4ccc(NC(=N)c5csc(C)n5)cc4OC(C)C)o3)c(OC(C)C)c2)cs1
Test target: Leishmania donovani
Endpoint: log10 IC50
Meas value: 0.15

====

test system: Leishmania donovani; experiment: Antileishmanial activity against Leishmania donovani axenic amastigotes after 3 days by tetrazolium dye based spectrophotometric analysis at pH 5.5; type: functional, organism-based; conditions: 72 h
pIC50: −log10 of the molar value.
Listed here: items and their measured pIC50.
Endpoint: pIC50

Compound: CC(C)COc1cc(NC(=N)c2ncccn2)ccc1-c1ccc(-c2ccc(NC(=N)c3ncccn3)cc2OCC(C)C)o1
Inequality operator: =
Meas value: 5.62

Compound: Cc1ccc(C(=N)Nc2ccc(-c3ccc(-c4ccc(NC(=N)c5ccc(C)cn5)cc4C)o3)c(C)c2)nc1
Inequality operator: =
Meas value: 6.08

Compound: N=C(Nc1ncc(-c2ccc(-c3cnc(NC(=N)c4ccccn4)nc3)o2)cn1)c1ccccn1
Inequality operator: <
Meas value: 4.00

Compound: COc1cccc(C(=N)Nc2ccc(-c3ccc(-c4ccc(NC(=N)c5cccc(OC)n5)cc4OC(C)C)o3)c(OC(C)C)c2)n1
Inequality operator: =
Meas value: 5.35

Compound: CC(C)Oc1cc(NC(=N)c2cnccn2)ccc1-c1ccc(-c2ccc(NC(=N)c3cnccn3)cc2OC(C)C)o1
Inequality operator: =
Meas value: 4.70

Compound: COc1cc(NC(=N)c2ccccn2)ccc1-c1ccc(-c2ccc(NC(=N)c3ccccn3)cc2OC)o1
Inequality operator: =
Meas value: 6.28

Compound: N=C(Nc1cnc(-c2ccc(-c3cnc(NC(=N)c4ccccn4)cn3)o2)cn1)c1ccccn1
Inequality operator: <
Meas value: 4.00

Compound: CC(C)Oc1cc(NC(=N)c2ccc(Br)cn2)ccc1-c1ccc(-c2ccc(NC(=N)c3ccc(Br)cn3)cc2OC(C)C)o1
Inequality operator: =
Meas value: 4.55
